src = patent US20240139221A1

assay-details: Solubility in buffers, water and simulated vaginal fluid at 37° C.
settings: 37 °C, pH 4.2, fassgf or other biorelevant, thermodynamic from solid
Some molecules, each annotated with its measured solubility at 0.5 h.
observed-property: solubility at 0.5 h

1) CCOC(=O)[C@H](C)NP(=O)(COCCn1cnc2c(OC)nc(N)nc21)OCc1ccccc1.O=C(O)/C=C/C(=O)O (mixture of isomers) [Compound I monofumarate]: > 2000 µg/mL
2) CCOC(=O)[C@H](C)N[P@@](=O)(COCCn1cnc2c(OC)nc(N)nc21)OCc1ccccc1.O=C(O)/C=C/C(=O)O [Compound II]: > 2000 µg/mL

---

assay-details: Solubility in buffers, water and simulated vaginal fluid at 37° C.
settings: citrate buffer, 37 °C, pH 3, aqueous buffer, thermodynamic from solid
observed-property: solubility at 0.5 h

1) CCOC(=O)[C@H](C)NP(=O)(COCCn1cnc2c(OC)nc(N)nc21)OCc1ccccc1 (stereo partly shown): > 2000 µg/mL
